OBSERVATION TYPE: melting point

Cl.Cn1c2c(c3cc(S(=O)(=O)c4ccccc4)ccc31)CCNCC2 : > 300 °C
CC(C)N1CCc2c(n(C)c3ccc(S(=O)(=O)c4ccc(F)cc4)cc23)CC1 [Example 20] : 282 to 283 °C (dec.)
Cl.Cn1c2c(c3cc(S(=O)(=O)c4cc(F)cc(F)c4)ccc31)CCNCC2 : 337 to 340 °C (dec.)
Cc1ccc(S(=O)(=O)c2ccc3[nH]c4c(c3c2)CCNCC4)cc1 [Example 3] : 125 °C (dec.)
Cl.O=S(=O)(c1ccc(C(F)(F)F)cc1)c1ccc2[nH]c3c(c2c1)CCNCC3 : 278 to 279 °C (dec.)
COc1ccc(S(=O)(=O)c2ccc3[nH]c4c(c3c2)CCNCC4)cc1 [Example 4] : 139 °C (dec.)

Turning to the following compound.
Query block: Please look at this compound and report its melting point: Cl.O=S(=O)(c1ccccc1)c1ccc2[nH]c3c(c2c1)CCNCC3
Result block: 290 to 291.5 °C
